target: human recombinant H-PGDS (Homo sapiens); assay: Fluoresecence Intensity h-PGDSTBA Enzyme Assay; details: IC50, 5.0 μM PGH2, 2.5 mM L-Glutathione, 10 min preincubation, 4-parameter fit, highest inhibitor concentration typically 1 μM
Sequence (O60760 whole entry): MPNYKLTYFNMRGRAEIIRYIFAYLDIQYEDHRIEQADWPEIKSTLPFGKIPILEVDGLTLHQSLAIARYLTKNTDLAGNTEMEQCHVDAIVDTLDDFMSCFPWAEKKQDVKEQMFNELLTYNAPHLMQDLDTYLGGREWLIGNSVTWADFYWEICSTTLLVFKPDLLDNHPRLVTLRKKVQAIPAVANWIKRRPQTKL
pIC50: −log10 of the molar value.
ENDPOINT NAME: pIC50

- MOLECULE: "CC(C)N1CCC(NC(=O)c2cnc(-c3ccccc3)nc2O)CC1 [Example 24]"
  pIC50: "≤ 6.00"
- MOLECULE: "CC(C)CN1CCC(NC(=O)c2cnc(-c3ccccc3)nc2N)CC1 [Example 15]"
  pIC50: "≤ 6.00"

Result for O=C(NC1CCN(CC(F)(F)F)CC1)c1cnc(-c2ccccc2)nc1O [Example 22] , tested on human recombinant H-PGDS (Homo sapiens), pIC50: ≤ 6.00
